Test: Effect of filament density, poration energy and filament array size on PK profile (Examples 7-9)
Design: species or system guinea pigs
Conditions: guinea pig, in vivo, topical or ocular, 2 mg, Table 13 # 2: 200 filaments/cm^2, 3 mJ/filament, area 1.0 cm^2; patch 2.00 mg Zolmitriptan
Method: This example describes various effects of filament density. To investigate the effect of filament density on PK profile and side effects (pain by poration and skin irritation), these studies were conducted. The filament density mainly affects the area to be utilized for the transfer of body fluid and ingredients in between skin and patch. The range of filament density was 100 filaments/cm^2 to 400 filaments/cm^2, and the poration energy was from 3 to 4 mJ/filament. […]
measured_quantity: Cmax (ng/mL)

> print(dat)
                              record.smiles  measured.quantity  units.label  data.value
1  CN(C)CCc1c[nH]c2ccc(C[C@H]3COC(=O)N3)cc12               Cmax        ng/mL         520

* * *

Test: Effect of filament density, poration energy and filament array size on PK profile (Examples 7-9)
Set-up: species or system guinea pigs
Conditions: guinea pig, in vivo, topical or ocular, 2 mg, Table 13 # 6: 400 filaments/cm^2, 4 mJ/filament, area 1.0 cm^2; patch 2.00 mg Zolmitriptan
Description: This example describes various effects of filament density. To investigate the effect of filament density on PK profile and side effects (pain by poration and skin irritation), these studies were conducted. The filament density mainly affects the area to be utilized for the transfer of body fluid and ingredients in between skin and patch. The range of filament density was 100 filaments/cm^2 to 400 filaments/cm^2, and the poration energy was from 3 to 4 mJ/filament. […]
measured_quantity: Cmax (ng/mL)

> print(dat)
                              record.smiles  data.value
1  CN(C)CCc1c[nH]c2ccc(C[C@H]3COC(=O)N3)cc12         896

* * *

Test: Effect of filament density, poration energy and filament array size on PK profile (Examples 7-9)
Design: species or system guinea pigs
Details: guinea pig, in vivo, topical or ocular, 2 mg, Table 13 # 1: 100 filaments/cm^2, 3 mJ/filament, area 1.0 cm^2; patch 2.00 mg Zolmitriptan
measured_quantity: Tmax (h)

> print(dat)
                              record.smiles  measured.quantity  data.value
1  CN(C)CCc1c[nH]c2ccc(C[C@H]3COC(=O)N3)cc12               Tmax        2.75

* * *

Assay: Effect of filament density, poration energy and filament array size on PK profile (Examples 7-9)
Parameters: species or system guinea pigs
Details: guinea pig, in vivo, sc, 0.5 mg, Table 17 #1: dose 0.50 mg, 4 mJ/filament, 1.0 cm^2, 400 filaments/cm^2; relative bioavailability against SC injection; read-out: Bioavailability ± SE
measured_quantity: bioavailability (%)

> print(dat)
                              record.smiles  data.value
1  CN(C)CCc1c[nH]c2ccc(C[C@H]3COC(=O)N3)cc12        70.6

* * *

Test: Administration route study in guinea pigs (Example 5)
Type: in vivo
Conditions: guinea pig, blood, Group 3: 2 mg base/4 mL, oral route
measured_quantity: Tmax (min)

> print(dat)
                              record.smiles  data.value
1  CN(C)CCc1c[nH]c2ccc(C[C@H]3COC(=O)N3)cc12        19.8
